# reported Drug uptake; entries follow
# Test system: Midbrain
# Test Summary: Drug uptake in anesthetized cynomolgus monkey brain midbrain after 225 mins postinjection
# Format: ADME, organism-based, Macaca fascicularis
# Experimental Context: in vivo, 3.75 h
Just the number, please.

• O=C(OCC[18F])C1C2CCC(CC1c1ccc(/C=C\I)cc1)N2 (stereo not given) = 4.51
• O=C(OCCC[18F])C1C2CCC(CC1c1cccc(/C=C\Br)c1)N2 (stereo not given) = 4.29
• O=C(OCCC[18F])C1C2CCC(CC1c1cccc(/C=C\I)c1)N2 (stereo not given) = 3.76
• O=C(OCC[18F])C1C2CCC(CC1c1cccc(/C=C\Br)c1)N2 (stereo not given) = 3.74

For the compound O=C(OCC[18F])C1C2CCC(CC1c1cccc(/C=C\I)c1)N2 (stereo not given) , the measured Drug uptake on Midbrain was 2.99

###

# Tested on: Putamen
# Test Summary: Drug uptake in anesthetized cynomolgus monkey brain putamen after 22.5 mins postinjection
# Type: ADME, organism-based, Macaca fascicularis
# Design: unit not given here
# Experimental Context: in vivo, 0.375 h
# reported Drug uptake; entries follow
Just the number, please.

# example entries with known answers
• O=C(OCCC[18F])C1C2CCC(CC1c1cccc(/C=C\I)c1)N2 (stereo not given) = 4.71
• O=C(OCC[18F])C1C2CCC(CC1c1cccc(/C=C\I)c1)N2 (stereo not given) = 3.96
• O=C(OCC[18F])C1C2CCC(CC1c1ccc(/C=C\I)cc1)N2 (stereo not given) = 3.13

The molecule listed as O=C(OCC[18F])C1C2CCC(CC1c1cccc(/C=C\Br)c1)N2 (stereo not given) shows Drug uptake equal to 4.33

The molecule listed as O=C(OCCC[18F])C1C2CCC(CC1c1cccc(/C=C\Br)c1)N2 (stereo not given) shows Drug uptake equal to 5.81

###

# reported Ratio; entries follow
# Test Summary: Ratio of drug uptake in caudate to cerebellum in anesthetized cynomolgus monkey after 12.5 mins postinjection
# Format: ADME, organism-based, Macaca fascicularis
# Experimental Context: in vivo
Just the number, please.

# example entries with known answers
- O=C(OCCC[18F])C1C2CCC(CC1c1cccc(/C=C\I)c1)N2 (centres undefined): 0.7
- O=C(OCC[18F])C1C2CCC(CC1c1cccc(/C=C\Br)c1)N2 (centres undefined): 0.8
- O=C(OCC[18F])C1C2CCC(CC1c1ccc(/C=C\I)cc1)N2 (centres undefined): 0.8

Switching to the query record.
The molecule listed as O=C(OCCC[18F])C1C2CCC(CC1c1cccc(/C=C\Br)c1)N2 (centres undefined) shows Ratio equal to 0.7

###

# Test system: Thalamus
# Test Summary: Drug uptake in anesthetized cynomolgus monkey brain thalamus after 225 mins postinjection
# Assay type: ADME, organism-based, Macaca fascicularis
# Design: unit not given here
# Experimental Context: in vivo, 3.75 h
Mark each entry Satisfied if its Drug uptake sits below 3, and Not satisfied for all others.

These solved cases illustrate the format of a correct answer.
- O=C(OCCC[18F])C1C2CCC(CC1c1cccc(/C=C\I)c1)N2 (stereo not given): Satisfied
- O=C(OCC[18F])C1C2CCC(CC1c1cccc(/C=C\I)c1)N2 (stereo not given): Satisfied
- O=C(OCCC[18F])C1C2CCC(CC1c1cccc(/C=C\Br)c1)N2 (stereo not given): Not satisfied

State whether 3 exceeds Drug uptake recorded for O=C(OCC[18F])C1C2CCC(CC1c1ccc(/C=C\I)cc1)N2 (stereo not given) .
Not satisfied

Origin of the recorded values: ChEMBL document CHEMBL1151757
